- Tested on: Mel-DCC-11-R
- protocolDetails: cell viability relative to DMSO control (fraction of DMSO control); higher = less cytotoxic, active = 0.8 or less
- testConditions: 1 µM; 120 h; vemurafenib co-treatment 8 µM
Response field label: string, one of class 1 (cell viability strictly below 1) or class 0.

Q. Strictly below 1 in cell viability? Cc1cn(-c2cc(NC(=O)c3ccc(C)c(Nc4nccc(-c5cccnc5)n4)c3)cc(C(F)(F)F)c2)cn1
A. class 0

Q. Strictly below 1 in cell viability? [Cl][Pt+2][Cl] [Cisplatin]
A. class 0

Q. Strictly below 1 in cell viability? Nc1nc(=O)c2c(CCc3ccc(C(=O)N[C@@H](CCC(=O)O)C(=O)O)cc3)c[nH]c2[nH]1
A. class 1

Q. Strictly below 1 in cell viability? CC(=O)c1c(C)c2cnc(Nc3ccc(N4CCNCC4)cn3)nc2n(C2CCCC2)c1=O.O=S(=O)(O)CCO [Palbociclib Isethionate]
A. class 0

Q. Strictly below 1 in cell viability? CO[C@H]1C[C@@H]2CC[C@@H](C)[C@@](O)(O2)C(=O)C(=O)N2CCCC[C@H]2C(=O)O[C@H]([C@H](C)C[C@@H]2CC[C@@H](O)[C@H](OC)C2)CC(=O)[C@H](C)/C=C(\C)[C@@H](O)[C@@H](OC)C(=O)[C@H](C)C[C@H](C)/C=C/C=C/C=C/1C
A. class 1

====

Please go through the items and note down their cell viability.
- System: Mel-DCC-11
- protocolDetails: cell viability relative to DMSO control (fraction of DMSO control); higher = less cytotoxic, active = 0.5 or less
- testConditions: 1 µM; 120 h

Q. // query cell viability value for entry CC(COc1ccccc1)N(CCCl)Cc1ccccc1.Cl (stereo not drawn) [Phenoxybenzamine hydrochloride]
A. 1.18 (inactive)

Q. // query cell viability value for entry C[C@]12CC[C@H](O)CC1=CC[C@@H]1[C@@H]2CC[C@]2(C)C(c3cccnc3)=CC[C@@H]12 [Abiraterone]
A. 1.28 (inactive)

Q. // query cell viability value for entry COc1cc2ncnc(Nc3ccc(F)c(Cl)c3)c2cc1OCCCN1CCOCC1 [Gefitinib]
A. 1.08 (inactive)

Q. // query cell viability value for entry CNC(=O)c1ccc(N2C(=S)N(c3cnc(C#N)c(C(F)(F)F)c3)C(=O)C23CCC3)cc1F [Apalutamide]
A. 1.18 (inactive)

Q. // query cell viability value for entry CN(N=O)C(=O)N[C@@H]1[C@@H](O)[C@H](O)[C@@H](CO)O[C@@H]1O [Streptozocin]
A. 1.17 (inactive)

Q. // query cell viability value for entry COc1cccc2c1C(=O)c1c(O)c3c(c(O)c1C2=O)C[C@@](O)(C(C)=O)C[C@@H]3O[C@H]1C[C@H](N)[C@H](O)[C@H](C)O1.Cl [Daunorubicin hydrochloride]
A. 0.0325 (active)

Q. // query cell viability value for entry CCCCCOC(=O)Nc1nc(=O)n([C@@H]2O[C@H](C)[C@@H](O)[C@H]2O)cc1F [Capecitabine]
A. 1.18 (inactive)

Q. // query cell viability value for entry CNCc1ccc(-c2[nH]c3cc(F)cc4c3c2CCNC4=O)cc1.O=P(O)(O)O [Rucaparib Phosphate]
A. 1.1 (inactive)

Q. // query cell viability value for entry CCCCCCCCCCCCCC(=O)[O-].CCCCCCCCCCCCCC(=O)[O-].N[C@@H]1CCCC[C@H]1N.[Pt+2] [Miriplatin]
A. 1.11 (inactive)

Q. // query cell viability value for entry Oc1c(I)cc(Cl)c2cccnc12 [Clioquinol]
A. 0.864 (inactive)

Q. // query cell viability value for entry CC(C)(CO)c1cc2cc(NC(=O)C3(c4ccc5c(c4)OC(F)(F)O5)CC3)c(F)cc2n1C[C@@H](O)CO
A. 1.01 (inactive)

Q. // query cell viability value for entry Nc1nc([O-])c2c(CCc3ccc(C(=O)N[C@@H](CCC(=O)[O-])C(=O)[O-])cc3)c[nH]c2n1.[Na+].[Na+] [Pemetrexed disodium]
A. 0.857 (inactive)

Q. // query cell viability value for entry CC(O)(P(=O)(O)O)P(=O)(O)O [Etidronate]
A. 0.821 (inactive)

Q. // query cell viability value for entry CCCCCCNC(=O)n1cc(F)c(=O)[nH]c1=O [Carmofur]
A. 1.58 (inactive)

Q. // query cell viability value for entry CC=Cc1ccc(OC)cc1 (stereo in doubt) [cis-Anethol]
A. 1.19 (inactive)

Q. // query cell viability value for entry O.S=c1nc[nH]c2nc[nH]c12 [6-Mercaptopurine monohydrate]
A. 0.736 (inactive)

Q. // query cell viability value for entry Nc1ccn([C@@H]2O[C@H](CO)[C@@H](O)[C@@H]2O)c(=O)n1 [Cytarabine]
A. 0.87 (inactive)

Q. // query cell viability value for entry O=[N+]([O-])c1cncn1CCN1CCOCC1 [Nimorazole]
A. 1.13 (inactive)

Q. // query cell viability value for entry COc1cc(Nc2c(C#N)cnc3cc(OCCCN4CCN(C)CC4)c(OC)cc23)c(Cl)cc1Cl [Bosutinib]
A. 1.06 (inactive)

Q. // query cell viability value for entry CCc1c2c(nc3ccc(OC(=O)N4CCC(N5CCCCC5)CC4)cc13)-c1cc3c(c(=O)n1C2)COC(=O)[C@]3(O)CC.Cl.O.O.O [Irinotecan hydrochloride trihydrate]
A. 1.11 (inactive)

Q. // query cell viability value for entry COC(=O)N[C@@H](C)CNc1nccc(-c2cn(C(C)C)nc2-c2cc(Cl)cc(NS(C)(=O)=O)c2F)n1 [Encorafenib]
A. 0.236 (active)

Q. // query cell viability value for entry CO[C@@]12[C@H](COC(N)=O)C3=C(C(=O)C(C)=C(N)C3=O)N1C[C@@H]1N[C@@H]12 [Mitomycin C]
A. 1.76 (inactive)

Q. // query cell viability value for entry CC1(COc2ccc3c(c2)ncn3-c2ccc3cccc(N4CCC(N)CC4)c3n2)COC1 [Crenolanib]
A. 1.81 (inactive)

Q. // query cell viability value for entry CC(C)(O)CNc1nc(Nc2ccnc(C(F)(F)F)c2)nc(-c2cccc(C(F)(F)F)n2)n1 [Enasidenib]
A. 0.875 (inactive)

Q. // query cell viability value for entry CC1(C)CCC(CN2CCN(c3ccc(C(=O)NS(=O)(=O)c4ccc(NCC5CCOCC5)c([N+](=O)[O-])c4)c(Oc4cnc5[nH]ccc5c4)c3)CC2)=C(c2ccc(Cl)cc2)C1
A. 1.42 (inactive)

Q. // query cell viability value for entry CC(/C=C/C=C(\C)C(=O)O[C@@H]1O[C@H](CO[C@@H]2O[C@H](CO)[C@@H](O)[C@H](O)[C@H]2O)[C@@H](O)[C@H](O)[C@H]1O)=C\C=C\C=C(C)\C=C\C=C(/C)C(=O)O[C@@H]1O[C@H](CO[C@@H]2O[C@H](CO)[C@@H](O)[C@H](O)[C@H]2O)[C@@H](O)[C@H](O)[C@H]1O [Crocin]
A. 1.28 (inactive)

Q. // query cell viability value for entry CC(C)Cn1cnc2c(N)nc3ccccc3c21 [Imiquimod]
A. 0.985 (inactive)

Q. // query cell viability value for entry CC1(C)[C@@H](O[C@H]2O[C@H](C(=O)O)[C@@H](O)[C@H](O)[C@H]2OC2O[C@H](C(=O)O)[C@@H](O)[C@H](O)[C@H]2O)CC[C@]2(C)[C@H]3C(=O)C=C4[C@@H]5C[C@@](C)(C(=O)O)CC[C@]5(C)CC[C@@]4(C)[C@]3(C)CC[C@@H]12 (stereo partly drawn) [Glycyrrhizin]
A. 1.13 (inactive)
